Each entry below carries its recorded growth.
# Test system: NCI-H226 lung
# assayProtocol: NCI-60 one-dose screen, 48 h (100 = growth as untreated, 0 = no growth, -100 = all killed)
# conditionInfo: 10 µM unless noted
This is part of a sample that, as a whole, favours compounds with a hit. Of some 83,000 tested, about 20% had one in any assay.
Just the number please, in %, no unit attached.

Some solved cases for reference:
compound | outcomeMeasure | observed
CCOC(=O)OCC(=O)[C@@]1(O)CC[C@H]2[C@@H]3CCC4=CC(=O)CC[C@]4(C)[C@H]3[C@@H](O)C[C@@]21C | growth | 70.1
O=C(Nc1ccccc1)P(=O)(O)c1ccccc1 | growth | 91.2
CNNc1ncnc2c1cnn2-c1ccc(S(N)(=O)=O)cc1 | growth | 91.3
CSc1nc2nc3c(nc2c(=O)n1C)C(=O)c1ccccc1C3=O | growth | -55.6
COC(=O)[C@H]1[C@H]2C[C@@H]3c4[nH]c5cc(OC)ccc5c4CCN3C[C@H]2C[C@@H](OC(=O)/C=C/c2cc(OC)c(OC)c(OC)c2)[C@@H]1OC | growth | 101

Prompt line: growth for CC(C)=CCCC(C)c1ccc(C)c2c1OCN(CC1CCNCC1)C2 (centres undefined) ?
Response line: 103

Prompt line: Lookup O=C(N/N=C/c1cccc([N+](=O)[O-])c1)c1ccc(Br)o1
Response line: 109

Prompt line: Lookup O=C1C=CC(=O)N1c1ccccc1N1C(=O)C=CC1=O
Response line: 101

Prompt line: Lookup CC(=O)OCC(=O)[C@@]1(O)CC[C@H]2[C@@H]3CCC4=CC(=O)CC[C@]4(C)[C@@]3(F)[C@@H](O)C[C@@]21C
Response line: 68.8
